Each item that follows carries a reported Ratio IC50.
species: Homo sapiens; assay: Selectivity index, ratio of IC50 for human placental microsomal CYP19 to IC50 for human CYP11B1
MEASURE_NAME: Ratio IC50

[[record]]
smiles_record = "O=C(Cn1ccnc1)c1ccc(OCc2cccc(OC(F)(F)F)c2)cc1"
val = 390

[[record]]
smiles_record = "O=c1cc(Cn2ccnc2)c2ccc(OCc3cc(F)cc(F)c3)cc2o1"
val = 3.8

[[record]]
smiles_record = "O=c1cc(Cn2ccnc2)c2ccc(OCc3ccc(OC(F)(F)F)cc3)cc2o1"
val = 19

[[record]]
smiles_record = "O=c1cc(Cn2ccnc2)c2ccc(OCc3cccc(OC(F)(F)F)c3)cc2o1"
val = 41

[[record]]
smiles_record = "O=c1cc(Cn2ccnc2)c2ccc(OCc3ccc(F)c(F)c3)cc2o1"
val = 3.3

[[record]]
smiles_record = "COc1ccc(COc2ccc3c(Cn4ccnc4)cc(=O)oc3c2)cc1"
val = 1.6

[[record]]
smiles_record = "N#Cc1cccc(COc2ccc(C(=O)Cn3ccnc3)cc2)c1"
val = 152

[[record]]
smiles_record = "COc1cccc(COc2ccc3c(Cn4ccnc4)cc(=O)oc3c2)c1"
val = 11

